# ASSAYED SYSTEM: KRas-mediated phosphorylation of ERK in MKN1 cells (Homo sapiens, UniProt P01116)
# Construct: pERK HTRF read-out
# Sequence (P01116 1-188 isoform P01116-2): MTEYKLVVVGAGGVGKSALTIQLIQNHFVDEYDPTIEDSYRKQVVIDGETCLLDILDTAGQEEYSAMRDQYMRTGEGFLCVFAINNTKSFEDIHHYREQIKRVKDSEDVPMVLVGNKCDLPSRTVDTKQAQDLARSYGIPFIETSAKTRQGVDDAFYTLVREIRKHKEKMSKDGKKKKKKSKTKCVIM
# METHOD DESCRIPTION: Inhibition of KRas-mediated phosphorylation of ERK (HTRF), MKN1 cells
# Format: cell-based
# DETAILS: MKN1 cells (KRas WT); HTRF pERK; 3 h incubation
For each record, write down the corresponding IC50.
Give a bare numeral; the unit nM is implied.

Q: Look up and report IC50, with KRas-mediated phosphorylation of ERK in MKN1 cells (Homo sapiens, UniProt P01116) as system, for CCc1c(F)ccc2cc(O)cc(-c3ncc4c(N5CCN(C(=O)n6ccnn6)CC5)nc(OC[C@@]56CCCN5C[C@H](F)C6)nc4c3F)c12
A: 72

Q: Look up and report IC50, with KRas-mediated phosphorylation of ERK in MKN1 cells (Homo sapiens, UniProt P01116) as system, for CCc1c(F)ccc2cc(O)cc(-c3ncc4c(N5CCC6CC6(C(=O)n6ccc(C)n6)CC5)nc(OC[C@@]56CCCN5C[C@H](F)C6)nc4c3F)c12 (stereo partly drawn)
A: 853

Q: Look up and report IC50, with KRas-mediated phosphorylation of ERK in MKN1 cells (Homo sapiens, UniProt P01116) as system, for Cc1ccn(C(=O)C2CCCN(c3nc(OC[C@@]45CCCN4C[C@H](F)C5)nc4c(F)c(-c5ccc(F)c6sc(N)c(C#N)c56)c(Cl)cc34)CCC2)n1
A: 187

Q: Look up and report IC50, with KRas-mediated phosphorylation of ERK in MKN1 cells (Homo sapiens, UniProt P01116) as system, for CCc1c(F)ccc2cc(O)cc(-c3ncc4c(N5CCCC(C(=O)n6ccc(C)n6)CC5)nc(OCC5(CN(C)C)CC5)nc4c3F)c12 (stereo not drawn)
A: 3050

Q: Look up and report IC50, with KRas-mediated phosphorylation of ERK in MKN1 cells (Homo sapiens, UniProt P01116) as system, for CN(CCNC(=O)n1ccnn1)c1nc(OC[C@@]23CCCN2C[C@H](F)C3)nc2c(F)c(-c3ccc(F)c4sc(N)c(C#N)c34)c(Cl)cc12
A: 223

Q: Look up and report IC50, with KRas-mediated phosphorylation of ERK in MKN1 cells (Homo sapiens, UniProt P01116) as system, for CCc1c(F)ccc2cc(O)cc(-c3ncc4c(N5CCC(C)(C(=O)n6ccc(C)n6)C5)nc(OC[C@@]56CCCN5C[C@H](F)C6)nc4c3F)c12 (stereo partly drawn)
A: 6200

###

# ASSAYED SYSTEM: KRas-mediated phosphorylation of ERK in A549 cells (Homo sapiens, UniProt P01116, G12S)
# Construct: pERK HTRF read-out
# Sequence (P01116 1-188 isoform P01116-2 G12S): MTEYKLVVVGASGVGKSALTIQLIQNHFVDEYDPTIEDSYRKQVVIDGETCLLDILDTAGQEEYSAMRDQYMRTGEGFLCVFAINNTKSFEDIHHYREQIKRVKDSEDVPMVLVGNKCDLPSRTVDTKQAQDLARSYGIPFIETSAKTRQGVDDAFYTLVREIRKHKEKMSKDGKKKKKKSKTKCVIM
# METHOD DESCRIPTION: Inhibition of KRas-mediated phosphorylation of ERK (HTRF), A549 cells
# Type: cell-based
# DETAILS: HTRF pERK, 3 h incubation
READOUT KIND: IC50 (nM)
Give a bare numeral; the unit nM is implied.

Q: Please give the documented IC50 of Cc1ccn(C(=O)C23CC(CNc4nc(OC[C@@]56CCCN5C[C@H](F)C6)nc5c(F)c(-c6ccc(F)c7sc(N)c(C#N)c67)c(Cl)cc45)(C2)C3)n1
A: 115

Q: Please give the documented IC50 of CCc1c(F)ccc2cc(O)cc(-c3ncc4c(N5CCN(C(=O)n6ccc(C)n6)C(C)C5)nc(OC[C@@]56CCCN5C[C@H](F)C6)nc4c3F)c12 (stereo partly drawn)
A: 3410

Q: Please give the documented IC50 of CCc1c(F)ccc2cc(O)cc(-c3ncc4c(N5CCCC6CC6(C(=O)n6ccc(C)n6)CC5)nc(OC[C@@]56CCCN5C[C@H](F)C6)nc4c3F)c12 (stereo partly drawn)
A: 4050

Provenance of the data: patent US20260356856A1
